Below is a list of entries, each paired with its recorded pKa value.
# assay: pKa measurement of unformulated amine lipid (fluorescence, method of Jayaraman et al.)
# Format: physicochemical
# test settings: 100 μM in 0.1 M phosphate buffer, pH 2.0-12.0
# Procedure: The pKa of each amine lipid was determined according to the method in Jayaraman, et al. (Angewandte Chemie, 2012) with the following adaptations. […] Lipid was diluted to 100 μM in 0.1 M phosphate buffer (Boston Bioproducts) where the pH ranged from 2.0-12.0. Fluorescence intensity was measured using excitation and emission wavelengths of 321 nm and 448 nm.
Write no unit; give the number alone.

{"columns": ["compound", "measured attribute", "reading"],
 "data": [
  ["CCCCCCCCCCOC(=O)CCCCCCCC(=O)OCC(COC(=O)CCCC(=O)OC(CCCCCCCC)CCCCCCCC)COC(=O)CCCN(C)C (stereo not drawn)", "pKa", 6.79],
  ["CCCCCCCCCCOC(=O)CCCCCCCCCC(=O)OCC(COC(=O)CCC(OCCCCCCCC)OCCCCCCCC)COC(=O)OCCCN(CC)CC (stereo not drawn)", "pKa", 6.14]
]}

Which value of pKa has been reported for CCCCC/C=C\C/C=C\CCCCCCCC(=O)OCC(COC(=O)CCCCN(CC)CC)COC(=O)CCC(OCCCCCCCC)OCCCCCCCC (stereo not drawn) in the records?
7.3
